- System: DRD HRASV12-transformed BJ fibroblasts viability, Alamar Blue, 48 h
- assay.overview: viability loss in DRD cells, dose response, cell-based, secondary screen, plate reader, dry powder, set 4 (AID 540315)
measured.parameter: AC50

smiles_str=Cc1onc(C(=O)NCCNC(c2ccccc2)c2ccccc2)c1[N+](=O)[O-] study_target="DRD HRASV12-transformed BJ fibroblasts viability, Alamar Blue, 48 h" measurement="43.8 µM"
smiles_str=COc1ccc(C(c2ccc(OC)cc2)N2CCN(C(=O)c3noc(C)c3[N+](=O)[O-])CC2)cc1 study_target="DRD HRASV12-transformed BJ fibroblasts viability, Alamar Blue, 48 h" measurement="4.37 µM"
smiles_str=O=C(NCCNC(c1ccccc1)c1ccccc1)c1ccc([N+](=O)[O-])o1 study_target="DRD HRASV12-transformed BJ fibroblasts viability, Alamar Blue, 48 h" measurement="5.59 µM"
smiles_str=Cc1onc(C(=O)N2CCN(C(c3ccc(F)cc3)c3ccc(F)cc3)CC2)c1[N+](=O)[O-] study_target="DRD HRASV12-transformed BJ fibroblasts viability, Alamar Blue, 48 h" measurement="0.784 µM"
smiles_str=COC(=O)c1ccc([C@@H]2c3[nH]c4ccccc4c3C[C@@H](C(=O)OC)N2C(=O)CCl)cc1 study_target="DRD HRASV12-transformed BJ fibroblasts viability, Alamar Blue, 48 h" measurement="0.604 µM"
smiles_str=Cc1onc(C(=O)N2CCN(C(c3ccccc3)c3ccccc3)CC2)c1[N+](=O)[O-] study_target="DRD HRASV12-transformed BJ fibroblasts viability, Alamar Blue, 48 h" measurement="2.64 µM"
smiles_str=Cc1onc(CC(=O)N2CCN(C(c3ccc(F)cc3)c3ccc(F)cc3)CC2)c1[N+](=O)[O-] study_target="DRD HRASV12-transformed BJ fibroblasts viability, Alamar Blue, 48 h" measurement="30.9 µM"
smiles_str=Cc1onc(C(=O)N2CCN(C(c3ccc(Cl)cc3)c3ccc(Cl)cc3)CC2)c1[N+](=O)[O-] study_target="DRD HRASV12-transformed BJ fibroblasts viability, Alamar Blue, 48 h" measurement="0.287 µM"
smiles_str=O=C(c1ccc([N+](=O)[O-])o1)N1CCN(C(c2ccc(F)cc2)c2ccc(F)cc2)CC1 study_target="DRD HRASV12-transformed BJ fibroblasts viability, Alamar Blue, 48 h" measurement="10.7 µM"

---

List of AC50 values.
- Test system: DRD HRASV12-transformed BJ fibroblasts viability, Alamar Blue, 48 h
- assay.overview: viability loss in DRD cells, dose response, cell-based, secondary screen, plate reader, dry powder, set 4 (AID 540315)
measured.parameter: AC50

compound="Cc1onc(C(=O)N2CCN(C(c3ccccc3)c3ccc(Cl)cc3)CC2)c1[N+](=O)[O-] (centres undefined)" measurement="0.585 µM"
compound="CCOc1ccccc1-n1c(C(C)N2CCN(C(=O)COc3ccc(Cl)cc3)CC2)nc2ccccc2c1=O (centres undefined)" measurement="2.16 µM"
compound=Cc1onc(C(=O)N2CCCN(C(c3ccccc3)c3ccccc3)CC2)c1[N+](=O)[O-] measurement="3.87 µM"
compound=COc1ccc(C(c2ccc(OC)cc2)N2CCN(C(=O)c3ccc([N+](=O)[O-])o3)CC2)cc1 measurement="5.84 µM"

The origin of these recorded values is PubChem BioAssay AID540315.
